- experiment description: Tanguay_ZF_120hpf_ActivityScore_legacy: (Legacy) Oregon State University Tanguay Lab 120 Hour Post-fertilization zebrafish Assay Score for Activity (AID 2283742)
The source made the active and inactive calls. How the source made its calls: active means hit-call score of the fitted dose curve at least 0.9, where 1 is the maximum; inconclusive means response in the unintended direction; inactive means score below 0.9.
Write down one outcome, taken from active, inactive

Some entries whose results are on file:
{"compound": "COc1cc(OC)nc(Sc2cccc(Cl)c2C(=O)O)n1", "discrete label": "inactive"}
{"compound": "CCCCSP(=O)(SCCCC)SCCCC", "discrete label": "inactive"}
{"compound": "CCc1cnc(C2=NC(C)(C(C)C)C(=O)N2)c(C(=O)O)c1 (configuration not stated)", "discrete label": "inactive"}
{"compound": "CC(C)=CC1C(C(=O)OCN2C(=O)C3=C(CCCC3)C2=O)C1(C)C (configuration not stated)", "discrete label": "inactive"}
{"compound": "CCC(=NOC/C=C/Cl)C1=C(O)CC(C2CCOCC2)CC1=O (configuration not stated)", "discrete label": "inactive"}

Test call for this compound, please: COP(=O)(OC)SCn1c(=O)oc2cc(Cl)cnc21
inactive

Test call for this compound, please: CCCOc1nn(C(=O)NS(=O)(=O)c2ccccc2C(=O)OC)c(=O)n1C
inactive

Test call for this compound, please: CC[C@H](C)[C@H]1O[C@]2(C=C[C@@H]1C)C[C@@H]1C[C@@H](C/C=C(\C)[C@@H](O[C@H]3C[C@H](OC)[C@@H](O[C@H]4C[C@H](OC)[C@@H](NC)[C@H](C)O4)[C@H](C)O3)[C@@H](C)/C=C/C=C3\CO[C@@H]4[C@H](O)C(C)=C[C@@H](C(=O)O1)[C@]34O)O2
active

Test call for this compound, please: CNC(=O)Oc1cccc2c1OC(C)(C)O2
inactive

Test call for this compound, please: CSc1nc(NC(C)C)nc(NC(C)C)n1
inactive

Test call for this compound, please: CN(C)NC(=O)CCC(=O)O
inactive

Test call for this compound, please: CCCSP(=O)(OCC)SCCC
inactive

Test call for this compound, please: S=C1NCCN1
inactive

Test call for this compound, please: CCOP(=O)(NC(C)C)Oc1ccc(SC)c(C)c1 (configuration not stated)
active

Test call for this compound, please: COP(=O)(NC(C)=O)SC (configuration not stated)
inactive

Test call for this compound, please: CCOC(=O)CC(SP(=O)(OC)OC)C(=O)OCC (configuration not stated)
inactive

Test call for this compound, please: CCCCOC(=O)c1ccccc1C(=O)O
inactive
